Where do the numbers come from? From patent US20240293405A1.

Give measured pKd for each item. Keep answers brief.
pKd is defined as minus the log10 of a concentration measured in mol/L.

IN: What measured pKd is associated with C=CC(=O)Nc1cc(Nc2nccc(-c3cn(C)c4ccccc34)n2)c(OC)cc1N(C)CCN(C)C [Osimertinib, reference compound] on ALK (Homo sapiens)?
OUT: 7.16

IN: What measured pKd is associated with C=CC(=O)Nc1cc(Nc2nccc(-n3ccc4cccnc43)n2)c(OC)cc1N(C)CCN(C)C [Compound 1] on ALK (Homo sapiens)?
OUT: 6.60

###

measurementNotes: Oral dog 4-week toxicity study with toxicokinetics
Type: in vivo, beagle dogs
conditionsUsed: both sexes, beagle, in vivo, oral; 4-week Dog toxicology
reportedProperty: NOAEL (mg/kg)
Just the number in mg/kg, nothing appended.

IN: Which NOAEL is listed for `C=CC(=O)Nc1cc(Nc2nccc(-n3ccc4cccnc43)n2)c(OC)cc1N(C)CCN(C)C` ?
OUT: 10
